These data points were gathered from patent US9556165B2.

# Test system: P. aeruginosa PAO1
# Assay Notes: MIC determination, broth microdilution (CLSI)
# Assay type: cell-based
# Measurement Setup: Pseudomonas aeruginosa, PAO1, strain 6
Test Readout: MIC
// return the numeric value with its unit appended

Exercise: Form field: reported MIC of CC1(C)[C@H](NC(=O)/C(=N\OCC(Oc2ccc(C(=N)N)cc2)C(=O)O)c2csc(N)n2)C(=O)N1OS(=O)(=O)O (single isomer, unassigned) [Example 87A]
Key: 32 µg/mL

Exercise: Item under review: CC1(C)[C@H](NC(=O)/C(=N\OCCOc2ccc(C(=N)NCCNC=N)cc2)c2csc(N)n2)C(=O)N1OS(=O)(=O)O . Reported MIC?
Key: 4 µg/mL

Exercise: # query: MIC of entry CC1(C)[C@H](NC(=O)/C(=N\OCCOc2ccc(C(=N)NCc3ccccn3)cc2)c2csc(N)n2)C(=O)N1OS(=O)(=O)O
Key: 16 µg/mL

Exercise: Name the recorded MIC for C[C@H]1[C@H](NC(=O)/C(=N\OCCOc2ccc(NC(=N)N)cc2)c2csc(N)n2)C(=O)N1S(=O)(=O)O .
Key: 8 µg/mL

Exercise: Give its MIC value. Item: CC1(C)[C@H](NC(=O)/C(=N\OCCOc2ccc(C(=N)NCCN)cc2)c2csc(N)n2)C(=O)N1OS(=O)(=O)O
Key: 2 µg/mL

Exercise: Which MIC is reported for this molecule? CC1(C)[C@H](NC(=O)/C(=N\O[C@@H](COc2ccc(C(=N)N[C@@H]3CCNC3)cc2)C(=O)O)c2csc(N)n2)C(=O)N1OS(=O)(=O)O
Key: 1 µg/mL
